test: Mean plasma quinine concentration over 24 hours after single oral dose of Quinine Sulfate (Example 6, Studies 1 and 2); assay type: in vivo, human; settings: both sexes, human, plasma, oral, 324 mg, Study 2, C: 324 mg capsule, fasting; 24 hours
Where a name gives a salt, the structure may show the parent alone.
ATTRIBUTE MEASURED: concentration at 24 h (ng/mL)

* C=C[C@H]1C[N@@]2CC[C@H]1C[C@H]2[C@H](O)c1ccnc2ccc(OC)cc12 [Quinine Sulfate] | 475

---

experiment: clinical; details: human, plasma, oral, 324 mg
Structures can show the parent of a compound that is named as a salt.
ATTRIBUTE MEASURED: AUC(0-inf)

- C=C[C@H]1C[N@@]2CC[C@H]1C[C@H]2[C@H](O)c1ccnc2ccc(OC)cc12 [Quinine Sulfate]: 32100 ng·h/mL

Data provenance: patent US20060263427A1
